# Lookup of reported TGI keyed by entry
# Test system: K-562 leukemia
# testDetails: NCI tumour cell line growth inhibition, 48 h

[
  {
    "compound": "COc1ccc(-c2c(-c3cc4c(c(OC)c3OC)OCO4)noc2N)cc1",
    "TGI": "> 100 µM"
  },
  {
    "compound": "OCCNC(=S)Nc1ccc(-c2nc(N3C[C@H]4CC[C@@H](C3)O4)c3cccn3n2)cc1",
    "TGI": "> 37.6 µM"
  },
  {
    "compound": "O=C(O)COc1cc(-c2ccccc2F)nc2cc3c(cc12)OCO3",
    "TGI": "> 100 µM"
  },
  {
    "compound": "CC(C)COC(=O)N1N=NC2C3CC(=O)C(O3)C21 (configuration not stated)",
    "TGI": "> 100 µM"
  },
  {
    "compound": "CS(=O)(=O)c1nccc(-c2c(-c3cccc(OCc4ccccc4)c3)nc3sccn23)n1",
    "TGI": "> 100 µM"
  },
  {
    "compound": "Clc1cc(Cl)cc(C2SCc3nc4ccccc4n32)c1 (configuration not stated)",
    "TGI": "25.2 µM"
  },
  {
    "compound": "Nc1c(C(=O)c2ccc(Cl)cc2)[nH]c(Nc2ccc(Cl)cc2)c1C(=S)Nc1ccccc1",
    "TGI": "17.8 µM"
  },
  {
    "compound": "C=C(C)[C@@H]1CC[C@]2(C)[C@H](CC=C3[C@@H]4CC(C)(C)CC[C@]4(CO)CC[C@]32C)[C@@]1(C)CCCN",
    "TGI": "8.26 µM"
  },
  {
    "compound": "CCCCC1CCCCCCc2[nH]c(/C=C3\\N=C(c4ccc[nH]4)C=C3OC)cc21 (configuration not stated)",
    "TGI": "1.28 µM"
  },
  {
    "compound": "NS(=O)(=O)c1ccc(C(=O)O)cc1",
    "TGI": "> 100 µM"
  }
]

Here's the next entry for you.
Form field: reported TGI of Nc1ccc([As](=O)(O)O)cc1 > 100 µM

Values compiled from PubChem BioAssay (NCI).
